- Test system: HL-60(TB) leukemia
- testMethodNotes: NCI tumour cell line growth inhibition, 48 h
experimentalReadout: TGI

Would you be so kind as to report TGI for each listed record?
1. O=C1CC(c2c[nH]c3ccccc23)C(=O)N1 (configuration not stated)
2. C=CC1(NC(=O)c2ccccc2)CCC(C(C)(C)C)CC1 (configuration not stated)

Out:
1. > 100 µM
2. 33 µM

Provide the reported TGI of each entry below, same order.
1. NCCSS(=O)(=O)CCN
2. O=C1OC(=O)C(=C\c2ccc3c(c2)OCO3)/C1=C/c1ccc2c(c1)OCO2
3. COc1nc(=O)n(COC(CO)CN2C(=O)c3ccccc3C2=O)cc1Cc1cccc(OCc2ccccc2)c1 (configuration not stated)
4. Oc1ccc(-c2cc(-c3cc(-c4ccc(O)cc4)no3)on2)cc1

Out:
1: > 100 µM; 2: > 88.1 µM; 3: 41.8 µM; 4: > 100 µM

// for each molecule in input: emit TGI
1. OCc1ccc(N2CCCC2c2ccccc2)cc1Cl (configuration not stated)
2. O=c1[nH]c(=O)n(C2CC(O)C(COP(=O)(OCc3ccc([N+](=O)[O-])o3)N(CCCCCl)CC(O)CO)O2)cc1F (configuration not stated)
3. O=C(NC1=C(Cl)C(=O)c2ccccc2C1=O)c1ccc(F)cc1

Out:
1: 11.1 µM; 2: > 100 µM; 3: > 100 µM
